- study system: human glucagon receptor (human, UniProt P47871)
- method notes: cell-based or functional assay
Starred links: 1 amine or outer side, 2 acyl side, 3 side chain; linkers in the order of their positions; H or OH if unused. Non-standard residues stand in square brackets, D forms with d. Groups on a side chain read outwards from the residue. Primed or numbered codes have the meaning given here. No end group written: not given here. *: point of attachment. C18 diacid = O=C(O)CCCCCCCCCCCCCCCCC(=O)*; Dip = N[C@H](C(=O)O)C(c1ccccc1)c1ccccc1; γGlu = O=C(O)[C@H](CCC(=O)[*:2])N[*:1]; Palmitoyl = CCCCCCCCCCCCCCCC(=O)*; αMeF = C[C@](N)(Cc1ccccc1)C(=O)O; Myristoyl = CCCCCCCCCCCCCC(=O)*; (PEG)2 = polyethylene glycol 2; PEG2′ = polyethylene glycol 2; AEEA = NCCOCCOCC(=O)O; Aib = CC(C)(N)C(=O)O
reported property: cAMP production, hGluc-R EC50 (pM)
Give a bare numeral; the unit pM is implied.

Recorded cAMP production, hGluc-R EC50 (pM) for H[Aib]QGTFTSDVSK[αMeF]LDSK([AEEA-AEEA-γGlu-C18 diacid])RARDFVRWLL[Aib]TE-OH (also: αMePhe at 23 (V)) [Peptide 166] , please? 270

Recorded cAMP production, hGluc-R EC50 (pM) for HSQGS[αMeF]TSDVSKILDSK([(PEG)2-(PEG)2-γGlu-γGlu-Palmitoyl])AAQD[αMeF]VQ[Aib]IINT-NH2 [Peptide 118] , please? 1.2

Recorded cAMP production, hGluc-R EC50 (pM) for HSQGS[αMeF]TSDVSK[Dip]LDSK([(PEG)2-(PEG)2-γGlu-γGlu-Myristoyl])AAQD[αMeF]VE[Aib]IINT-NH2 [Peptide 63] , please? 2.49

Recorded cAMP production, hGluc-R EC50 (pM) for HSQGS[αMeF]TSDVSKILDSKAAQD[αMeF]VQ[Aib]IAN-NH2 (not fully specified (residue 17)) [Peptide 111] , please? 2.09

Recorded cAMP production, hGluc-R EC50 (pM) for H[Aib]QGS[αMeF]TSDVSK[Dip]LDSK([PEG2′-PEG2′-γGlu-Palmitoyl])AAQD[αMeF]VQ[Aib]IAN-NH2 [Peptide 67] , please? 9.49
